test_system: 14-3-3 beta (Homo sapiens, UniProt P31946)
Sequence (P31946 whole entry): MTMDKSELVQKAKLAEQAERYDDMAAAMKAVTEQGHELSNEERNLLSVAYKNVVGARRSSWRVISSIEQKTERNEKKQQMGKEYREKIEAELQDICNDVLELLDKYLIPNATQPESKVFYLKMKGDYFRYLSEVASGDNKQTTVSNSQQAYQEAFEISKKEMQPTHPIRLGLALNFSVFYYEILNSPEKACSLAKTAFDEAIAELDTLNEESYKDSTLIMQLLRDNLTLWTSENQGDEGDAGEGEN
test_description: SPR competitive inhibition of 14-3-3 beta binding to phosphorylated Raf-259 peptide
run_parameters: isoform beta
Description: The ability of each peptide to inhibit binding of 14-3-3 zeta to the phosphorylated peptide was then tested in a range of concentrations between 1 and 50 μM. 14-3-3 zeta was prepared according to the methods in Example 1 and binding affinities and specificities were determined using the peptides in Table 2. The 14-3-3 zeta fusion proteins (0.5-1.0 μM) were pre-incubated with a given peptide at concentrations between 1 μM and 50 μM. […]
Where a SMILES comes first, the peptide text is derived from it. [ ]: non-standard residue; d: D form. pS = N[C@@H](COP(=O)(O)O)C(=O)O
quantity_measured: IC50
Note: a bare number is incomplete; add the unit.

Find the recorded IC50 belonging to CSCC[C@H](NC(=O)[C@H](Cc1c[nH]cn1)NC(=O)[C@@H](NC(=O)[C@H](CC(N)=O)NC(=O)[C@H](C)NC(=O)[C@@H](NC(=O)[C@H](COP(=O)(O)O)NC(=O)[C@@H](NC(=O)[C@H](CO)NC(=O)[C@H](CCCNC(=N)N)NC(=O)[C@H](CCC(N)=O)NC(=O)[C@H](CCCNC(=N)N)NC(=O)[C@H](CCC(N)=O)NC(=O)[C@H](CO)NC(=O)[C@@H](N)CC(C)C)[C@@H](C)O)[C@@H](C)O)C(C)C)C(=O)O [PA] (H-LSQRQRST[pS]TANVHM-OH) and report it.
24 µM

----------
test_system: 14-3-3 zeta (Homo sapiens)
Construct: made in house; host or cells: E. coli DH5α (vector pGEX-KT)
Sequence (P63104 whole entry): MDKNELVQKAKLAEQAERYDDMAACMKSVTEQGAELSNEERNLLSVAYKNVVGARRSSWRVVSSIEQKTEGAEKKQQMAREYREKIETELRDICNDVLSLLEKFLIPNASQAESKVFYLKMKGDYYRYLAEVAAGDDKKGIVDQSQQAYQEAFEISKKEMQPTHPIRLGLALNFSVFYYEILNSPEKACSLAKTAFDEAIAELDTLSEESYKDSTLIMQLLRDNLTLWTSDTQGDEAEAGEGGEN
test_description: SPR competitive inhibition of 14-3-3 zeta binding to chip-coupled phosphorylated Raf-259 peptide
run_parameters: 14-3-3 zeta 0.5-1.0 μM; competitor 1-50 μM; relative affinity only
Where a SMILES comes first, the peptide text is derived from it. [ ]: non-standard residue; d: D form. pS = N[C@@H](COP(=O)(O)O)C(=O)O
quantity_measured: IC50

Find the recorded IC50 belonging to CC(C)C[C@H](N)C(=O)N[C@@H](CO)C(=O)N[C@@H](CCC(N)=O)C(=O)N[C@@H](C)C(=O)N[C@@H](CCC(N)=O)C(=O)N[C@@H](CO)C(=O)N[C@@H](CCCNC(=N)N)C(=O)N[C@H](C(=O)N[C@@H](COP(=O)(O)O)C(=O)N[C@H](C(=O)N1CCC[C@H]1C(=O)N[C@@H](CC(N)=O)C(=O)N[C@H](C(=O)N[C@@H](Cc1c[nH]cn1)C(=O)N[C@@H](C)C(=O)O)C(C)C)[C@@H](C)O)[C@@H](C)O [Peptide R-2] (H-LSQAQSRT[pS]TPNVHA-OH) and report it.
> 50 µM

Find the recorded IC50 belonging to CC(C)C[C@H](N)C(=O)N[C@@H](CO)C(=O)N[C@@H](CCC(N)=O)C(=O)N[C@@H](C)C(=O)N[C@@H](CCC(N)=O)C(=O)N[C@@H](CCCNC(=N)N)C(=O)N[C@@H](CO)C(=O)N[C@H](C(=O)N[C@@H](COP(=O)(O)O)C(=O)N[C@H](C(=O)N1CCC[C@H]1C(=O)N[C@@H](CC(N)=O)C(=O)N[C@H](C(=O)N[C@@H](Cc1c[nH]cn1)C(=O)N[C@@H](C)C(=O)O)C(C)C)[C@@H](C)O)[C@@H](C)O [Peptide 254RA] (H-LSQAQRST[pS]TPNVHA-OH) and report it.
9 µM

Find the recorded IC50 belonging to CC(C)C[C@H](N)C(=O)N[C@@H](CO)C(=O)N[C@@H](CCC(N)=O)C(=O)N[C@@H](CCCNC(=N)N)C(=O)N[C@@H](CCC(N)=O)C(=O)N[C@@H](CCCNC(=N)N)C(=O)N[C@@H](COP(=O)(O)O)C(=O)N[C@H](C(=O)N[C@@H](CO)C(=O)N[C@H](C(=O)N1CCC[C@H]1C(=O)N[C@@H](CC(N)=O)C(=O)N[C@H](C(=O)N[C@@H](Cc1c[nH]cn1)C(=O)N[C@@H](C)C(=O)O)C(C)C)[C@@H](C)O)[C@@H](C)O [pS-Raf-257] (H-LSQRQR[pS]TSTPNVHA-OH) and report it.
> 50 µM

Find the recorded IC50 belonging to CC(C)C[C@H](N)C(=O)N[C@@H](CO)C(=O)N[C@@H](CCC(N)=O)C(=O)N[C@@H](CCCNC(=N)N)C(=O)N[C@@H](CCC(N)=O)C(=O)N[C@@H](C)C(=O)N[C@@H](CO)C(=O)N[C@H](C(=O)N[C@@H](COP(=O)(O)O)C(=O)N[C@H](C(=O)N1CCC[C@H]1C(=O)N[C@@H](CC(N)=O)C(=O)N[C@H](C(=O)N[C@@H](Cc1c[nH]cn1)C(=O)N[C@@H](C)C(=O)O)C(C)C)[C@@H](C)O)[C@@H](C)O [Peptide 256RA] (H-LSQRQAST[pS]TPNVHA-OH) and report it.
19 µM

Find the recorded IC50 belonging to CC(C)C[C@H](N)C(=O)N[C@@H](CO)C(=O)N[C@@H](CCC(N)=O)C(=O)N[C@@H](CCCNC(=N)N)C(=O)N[C@@H](CCC(N)=O)C(=O)N[C@@H](CCCNC(=N)N)C(=O)N[C@@H](COP(=O)(O)O)C(=O)N[C@H](C(=O)N[C@@H](COP(=O)(O)O)C(=O)N[C@H](C(=O)N1CCC[C@H]1C(=O)N[C@@H](CC(N)=O)C(=O)N[C@H](C(=O)N[C@@H](Cc1c[nH]cn1)C(=O)N[C@@H](C)C(=O)O)C(C)C)[C@@H](C)O)[C@@H](C)O [pS-Raf-257,259] (H-LSQRQR[pS]T[pS]TPNVHA-OH) and report it.
> 50 µM

Find the recorded IC50 belonging to CC(C)C[C@H](N)C(=O)N[C@@H](CO)C(=O)N[C@@H](CCC(N)=O)C(=O)N[C@@H](C)C(=O)N[C@@H](CCC(N)=O)C(=O)N[C@@H](C)C(=O)N[C@@H](CO)C(=O)N[C@H](C(=O)N[C@@H](COP(=O)(O)O)C(=O)N[C@H](C(=O)N1CCC[C@H]1C(=O)N[C@@H](CC(N)=O)C(=O)N[C@H](C(=O)N[C@@H](Cc1c[nH]cn1)C(=O)N[C@@H](C)C(=O)O)C(C)C)[C@@H](C)O)[C@@H](C)O [254/256RA] (H-LSQAQAST[pS]TPNVHA-OH) and report it.
> 50 µM
